Target: c-Met (cytoplasmic domain) (Homo sapiens, UniProt P08581)
Construct: 10 ng/mL c-Met (cytoplasmic domain, Invitrogen Corporation #PV3143); purchased Invitrogen Corporation PV3143
Sequence (P08581 956-1390 limits assumed): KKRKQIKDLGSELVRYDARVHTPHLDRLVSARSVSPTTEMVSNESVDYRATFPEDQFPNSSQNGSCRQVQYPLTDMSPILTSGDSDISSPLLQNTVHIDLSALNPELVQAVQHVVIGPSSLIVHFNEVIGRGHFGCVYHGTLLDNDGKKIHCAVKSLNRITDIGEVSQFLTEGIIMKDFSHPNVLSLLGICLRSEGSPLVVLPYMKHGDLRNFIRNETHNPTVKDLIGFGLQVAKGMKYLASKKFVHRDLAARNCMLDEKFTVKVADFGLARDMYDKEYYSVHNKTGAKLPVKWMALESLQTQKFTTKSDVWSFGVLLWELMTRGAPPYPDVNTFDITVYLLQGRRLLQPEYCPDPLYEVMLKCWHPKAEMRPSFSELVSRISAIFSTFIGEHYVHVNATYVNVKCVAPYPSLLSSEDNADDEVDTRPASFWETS
Experiment: c-Met Kinase Assay (same methods as for ALK, with modifications)
Format: biochemical
Settings: c-Met kinase inhibition, 1 μM ATP; read-out: cMet Activity
measured_endpoint: IC50

1. CNC(=O)c1cccc(F)c1Nc1nc(Nc2ccc3c(c2)CCC(=O)NC3(C)C)ncc1Cl [Example 1826]: 1000 to 10000 nM
2. CCN1C(=O)CCC(C)(C)c2ccc(Nc3ncc(Cl)c(Nc4ccsc4C(=O)NC)n3)cc21 [Example 1597]: 1000 to 10000 nM
3. C#CCNC(=O)c1cccc(F)c1Nc1nc(Nc2ccc3c(c2)OCCCN3C(=O)OC2CCCN(C)C2)ncc1Cl (centres unmarked) [Example 1439]: 100 to 1000 nM
4. COc1cc2c(cc1Nc1ncc(Cl)c(N[C@@H]3CCCC[C@H]3NS(C)(=O)=O)n1)CCOC(=O)N2C [Example 1503]: > 10000 nM
5. COc1cc2c(cc1Nc1ncc(Cl)c(Nc3cccc(OCC#N)c3)n1)CCOC(=O)N2C [Example 1510]: > 10000 nM
6. CNC(=O)c1cccc(F)c1Nc1nc(Nc2ccc3c(c2)N(C(=O)CN2CCCC2)CCCC3(C)C)ncc1Cl [Example 1603]: 100 to 1000 nM
7. COc1cc2c(cc1Nc1ncc(Cl)c(Nc3ccccc3S(=O)(=O)C(C)C)n1)CCN(CC(=O)N1CCN(C)CC1)CC2 [Example 1541]: > 10000 nM
8. COc1cc2c(cc1Nc1ncc(Cl)c(N[C@H]3[C@@H](C(N)=O)[C@@H]4C=C[C@H]3C4)n1)CCN(CC(=O)N1CCN(C)CC1)CC2 [Example 1539]: > 10000 nM
9. CCN1CCCOc2cc(Nc3ncc(Cl)c(Nc4ccc(N5CCOCC5)cc4OC)n3)c(F)cc21 [Example 1688]: > 10000 nM
10. CNC(=O)c1cccc(C(F)(F)F)c1Nc1nc(Nc2ccc3c(c2)CCOC(=O)N3C)ncc1Cl [Example 1753]: 100 to 1000 nM
11. CCN1CC(=O)N(CC)c2cc(Nc3ncc(Cl)c(Nc4c(F)cccc4C(=O)NC)n3)ccc2C1 [Example 1870]: < 100 nM
12. CNC(=O)c1cccc(F)c1Nc1nc(Nc2ccc3c(c2)NC(=O)C(NCCOC)CC3)ncc1Cl (centres unmarked) [Example 1495]: 100 to 1000 nM
13. C#CCNC(=O)c1cccc(F)c1Nc1nc(Nc2ccc3c(c2)N(CC)CC(O)(CO)CO3)ncc1Cl (centres unmarked) [Example 1721]: 100 to 1000 nM
14. CCN1C(=O)CCCc2c1ccc(Nc1ncc(Cl)c(N[C@@H]3[C@@H]4C[C@@H]([C@@H](O)[C@H]4O)[C@@H]3C(N)=O)n1)c2OC [Example 1699]: > 10000 nM

###

Measured pIC50, listed per entry.
Target: c-Met (cytoplasmic domain) (Homo sapiens, UniProt P08581)
Construct: 10 ng/mL c-Met (cytoplasmic domain, Invitrogen Corporation #PV3143); purchased Invitrogen Corporation PV3143
Test: c-Met Kinase Assay (same methods as for ALK, with modifications)
Assay type: biochemical
Conditions: c-Met kinase inhibition, 1 μM ATP (Km level); read-out: cMet Activity
pIC50: −log10 of the molar value.
measured_endpoint: pIC50

1. CNC(=O)c1ccccc1Nc1nc(Nc2ccc3c(c2)C(=O)NCCO3)ncc1Cl: > 7.00
2. CN1CCNCc2cc(OCC(F)(F)F)c(Nc3ncc(Cl)c(N[C@@H]4CCCC[C@H]4NS(C)(=O)=O)n3)cc21: 5.00 to 6.00
3. C#CCN1CCc2ccc(Nc3ncc(Cl)c(N[C@@H]4CCCC[C@H]4NS(C)(=O)=O)n3)cc2CC1: 6.00 to 7.00
4. CN1CCN(CCO)Cc2ccc(Nc3ncc(Cl)c(N[C@@H]4CCCC[C@H]4NS(C)(=O)=O)n3)cc21: 5.00 to 6.00
5. COCCN1CCc2ccc(Nc3ncc(Cl)c(NC4C5C=CC(C5)C4C(N)=O)n3)cc2CC1 (stereo not drawn): 6.00 to 7.00
6. COc1cc2c(cc1Nc1ncc(Cl)c(Nc3ccc(N4CCOCC4)cc3OC)n1)N(C)CCN(C[C@@H](O)C(F)(F)F)C2: < 5.00
7. CC1(C)CCCNc2ccc(Nc3ncc(Cl)c(N[C@@H]4CCCC[C@H]4NS(C)(=O)=O)n3)cc21: 5.00 to 6.00
8. CN1CCNCc2cc(Nc3ncc(Cl)c(Nc4ccccc4NS(C)(=O)=O)n3)ccc21: 6.00 to 7.00
9. CCN1CCc2c(Nc3ncc(Cl)c(N[C@@H]4CCCC[C@H]4NS(C)(=O)=O)n3)ccc(OC)c2CC1: < 5.00
10. CS(=O)(=O)N[C@@H]1CCCC[C@H]1Nc1nc(Nc2ccc3c(c2)C2CCC(C3)N2)ncc1Cl (stereo partly drawn): 6.00 to 7.00
11. COCCN1CCc2ccc(Nc3ncc(Cl)c(N[C@@H]4CCCC[C@H]4N)n3)cc2CC1: 5.00 to 6.00
12. CNC(=O)c1ccccc1Nc1nc(Nc2ccc3c(c2)CCN(S(C)(=O)=O)CC3)ncc1Cl: > 7.00
13. CCN1CCN(C(C)=O)c2cc(Nc3ncc(Cl)c(Nc4c(F)cccc4C(=O)NC)n3)ccc2C1: > 7.00
14. COc1cc2c(cc1Nc1ncc(Cl)c(N[C@@H]3CCCC[C@H]3NS(C)(=O)=O)n1)CCN(CC(=O)N(C)C)CC2: < 5.00
15. CS(=O)(=O)N[C@@H]1CCCC[C@H]1Nc1nc(Nc2ccc3c(c2)CCC(N2CCOCC2)CC3)ncc1Cl (stereo partly drawn): 6.00 to 7.00
16. CCN1C(=O)CCCc2ccc(Nc3ncc(Cl)c(Nc4c(C)cccc4C(=O)NC)n3)cc21: > 7.00
17. CNC(=O)c1ccccc1Nc1nc(Nc2cc3c(cc2OC)CCN(CCOC)CC3)ncc1Cl: 6.00 to 7.00
18. COCCN1CCN(C)c2ccc(Nc3ncc(Cl)c(Nc4ccccc4NS(C)(=O)=O)n3)cc2C1: 6.00 to 7.00
19. CCN1CCc2ccc(Nc3ncc(Cl)c(N[C@@H]4CCCC[C@H]4NC(=O)C(F)(F)F)n3)cc2CC1: 6.00 to 7.00
20. CCOC(=O)N1CC(=O)N(CC)c2cc(Nc3ncc(Cl)c(Nc4c(F)cccc4C(=O)NC)n3)ccc2C1: > 7.00
21. CNC(=O)c1ccccc1Nc1nc(Nc2ccc3c(c2)CCC(=O)CC3)ncc1Cl: > 7.00
22. CCN1CCN(CC)c2cc(Nc3ncc(Cl)c(N[C@@H]4CCCC[C@H]4NS(C)(=O)=O)n3)c(Cl)cc2C1: < 5.00
23. CN1C(=O)CCCc2ccc(Nc3ncc(Cl)c(N[C@@H]4CCCC[C@H]4NS(C)(=O)=O)n3)cc21: 5.00 to 6.00
24. C#CCN1CC2OC(C1)c1cc(Nc3ncc(Cl)c(Nc4ccccc4C(=O)NC)n3)ccc12 (stereo not drawn): > 7.00
25. CCN1C(=O)OCCc2ccc(Nc3ncc(Cl)c(Nc4c(F)cccc4C(=O)NC)n3)cc21: > 7.00
26. CNS(=O)(=O)c1ccccc1Nc1nc(Nc2ccc3c(c2)C2CC3CN(C(C)C)C2)ncc1Cl (stereo not drawn): 6.00 to 7.00
27. CCN1CCc2ccc(Nc3ncc(Cl)c(N[C@@H]4CCCC[C@H]4NC(C)=O)n3)cc2CC1: > 7.00
28. COc1cc(N2CCOCC2)ccc1Nc1nc(Nc2ccc3c(c2)C2CCC3CN(C(=O)C(F)(F)F)C2)ncc1Cl (stereo not drawn): < 5.00
29. CCN1C2CCC1c1c(ccc(Nc3ncc(Cl)c(Nc4ccccc4C(=O)NC)n3)c1Cl)C2 (stereo not drawn): 6.00 to 7.00
30. CS(=O)(=O)N[C@@H]1CCCC[C@H]1Nc1nc(Nc2ccc3c(c2)CCN(C[C@H](O)C(F)(F)F)CC3)ncc1Cl: 5.00 to 6.00

###

Biological target: baculovirus-expressed ALK (Homo sapiens, UniProt Q9UM73)
Construct: host or cells: baculovirus expression system
Sequence (Q9UM73 19-1620): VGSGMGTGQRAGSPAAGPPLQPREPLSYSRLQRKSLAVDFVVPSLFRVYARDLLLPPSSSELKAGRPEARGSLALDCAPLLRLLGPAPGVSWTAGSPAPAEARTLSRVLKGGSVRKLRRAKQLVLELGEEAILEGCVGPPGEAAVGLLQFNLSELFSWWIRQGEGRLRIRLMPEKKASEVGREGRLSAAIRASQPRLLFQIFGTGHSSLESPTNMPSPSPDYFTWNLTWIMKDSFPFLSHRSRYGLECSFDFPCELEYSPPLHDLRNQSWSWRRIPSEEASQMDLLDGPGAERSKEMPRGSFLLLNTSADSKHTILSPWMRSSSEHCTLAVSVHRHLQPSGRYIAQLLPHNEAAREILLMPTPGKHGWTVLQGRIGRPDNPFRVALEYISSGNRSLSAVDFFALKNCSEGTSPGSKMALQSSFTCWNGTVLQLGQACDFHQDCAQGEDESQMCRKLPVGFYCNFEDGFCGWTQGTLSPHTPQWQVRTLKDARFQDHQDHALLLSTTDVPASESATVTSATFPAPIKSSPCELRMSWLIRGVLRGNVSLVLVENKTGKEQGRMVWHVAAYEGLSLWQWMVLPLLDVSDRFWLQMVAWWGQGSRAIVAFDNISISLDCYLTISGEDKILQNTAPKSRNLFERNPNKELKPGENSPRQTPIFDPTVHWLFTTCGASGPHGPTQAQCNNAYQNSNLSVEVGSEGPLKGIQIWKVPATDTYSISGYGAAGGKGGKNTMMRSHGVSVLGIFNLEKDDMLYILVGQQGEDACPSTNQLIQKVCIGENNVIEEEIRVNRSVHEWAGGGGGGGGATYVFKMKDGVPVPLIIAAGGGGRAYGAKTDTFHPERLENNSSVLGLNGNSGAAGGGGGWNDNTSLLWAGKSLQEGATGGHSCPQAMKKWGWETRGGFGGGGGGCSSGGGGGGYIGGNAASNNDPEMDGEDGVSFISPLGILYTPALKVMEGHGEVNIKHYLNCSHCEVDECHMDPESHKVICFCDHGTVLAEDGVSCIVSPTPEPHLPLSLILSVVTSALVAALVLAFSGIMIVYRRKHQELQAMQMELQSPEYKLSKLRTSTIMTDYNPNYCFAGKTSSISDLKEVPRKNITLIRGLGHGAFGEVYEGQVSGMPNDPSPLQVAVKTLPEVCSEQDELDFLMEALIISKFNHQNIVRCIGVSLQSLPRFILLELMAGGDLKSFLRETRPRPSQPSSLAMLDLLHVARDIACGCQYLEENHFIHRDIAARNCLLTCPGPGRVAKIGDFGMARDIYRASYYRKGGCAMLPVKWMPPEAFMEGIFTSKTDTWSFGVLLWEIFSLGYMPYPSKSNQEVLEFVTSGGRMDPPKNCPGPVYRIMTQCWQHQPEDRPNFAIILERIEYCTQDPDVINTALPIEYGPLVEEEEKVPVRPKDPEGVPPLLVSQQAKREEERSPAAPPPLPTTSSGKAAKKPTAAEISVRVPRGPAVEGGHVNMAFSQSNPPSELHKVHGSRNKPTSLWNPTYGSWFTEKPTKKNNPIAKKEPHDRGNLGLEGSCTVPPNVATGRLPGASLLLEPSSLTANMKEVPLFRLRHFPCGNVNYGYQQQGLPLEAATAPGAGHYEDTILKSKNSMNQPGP
Experiment: ALK Kinase Assay (ELISA-type, time-resolved fluorescence)
Assay type: biochemical
Details: ALK kinase inhibition, 1 μM ATP; read-out: ALK Activity
pIC50: −log10 of the molar value.
measured_endpoint: pIC50

1. CNC(=O)c1ccccc1Nc1nc(Nc2ccc3c(c2)CCOC(=O)N3C)ncc1Cl: > 7.00
2. CCN1CC(=O)N(CC)c2cc(Nc3ncc(Cl)c(Nc4ccsc4C(=O)NC)n3)ccc2C1: > 7.00
3. COCCOc1cccc(F)c1Nc1nc(Nc2ccc3c(c2)NC(=O)CCC3)ncc1Cl: 6.00 to 7.00
4. CN1C(=O)OCCc2cc(Nc3ncc(Cl)c(Nc4c(F)cccc4OCC(O)CO)n3)ccc21 (stereo not drawn): 5.00 to 6.00
5. CNC(=O)c1cccc(Cl)c1Nc1nc(Nc2ccc3c(c2)CNC(=O)CC3)ncc1Cl: 6.00 to 7.00
6. C=CCOc1cc(N(C)C)cc(F)c1Nc1nc(Nc2ccc3c(c2)CCOC(=O)N3C)ncc1Cl: > 7.00
7. CCN1C(=O)C(NC(=O)COC)CCc2ccc(Nc3ncc(Cl)c(Nc4c(F)cccc4C(=O)NC)n3)cc21 (stereo not drawn): 6.00 to 7.00
8. CNC(=O)c1ccc(C(F)(F)F)cc1Nc1nc(Nc2ccc3c(c2)CCOC(=O)N3C)ncc1Cl: 6.00 to 7.00
9. CC(C)N1CCCC(C)(C)c2ccc(Nc3ncc(Cl)c(N[C@H]4[C@@H](C(N)=O)[C@@H]5C=C[C@H]4C5)n3)cc21: > 7.00
10. CN1C(=O)OCCc2cc(Nc3ncc(Cl)c(Nc4ccccc4-c4cc[nH]n4)n3)ccc21: < 5.00
11. C#CCNC(=O)c1cccc(F)c1Nc1nc(Nc2ccc3c(c2)OCCCN3CCN2CCCC2)ncc1Cl: > 7.00
12. CNC(=O)c1scc(C)c1Nc1nc(Nc2ccc3c(c2)CC(=O)N(C)CC3)ncc1Cl: > 7.00
13. CNC(=O)c1scc(C)c1Nc1nc(Nc2ccc3c(c2)CCC(=O)NC3(C)C)ncc1Cl: 5.00 to 6.00
14. COc1cc2c(cc1Nc1ncc(Cl)c(Nc3ccc(N(C)C)cc3OC)n1)CCN(CCN1CCOCC1)CC2: > 7.00
15. CNC(=O)c1ccccc1Nc1nc(Nc2ccc3c(c2)NC(=O)CNC3)ncc1Cl: 6.00 to 7.00
16. CN(C)CCN1CCCC(C)(C)c2ccc(Nc3ncc(Cl)c(N[C@H]4[C@@H](C(N)=O)[C@@H]5C=C[C@H]4C5)n3)cc21: > 7.00
17. CCN1CC(=O)Nc2cc(Nc3ncc(Cl)c(Nc4ccc(N5CCOCC5)cc4OC)n3)c(OC)cc2C1: > 7.00
18. CNC(=O)c1cccc(F)c1Nc1nc(Nc2ccc3c(c2)N(C(=O)CN2CCCC2)CCCC3(C)C)ncc1Cl: 6.00 to 7.00
19. CCN1CCN(CC(=O)OCCOC)C(=O)c2ccc(Nc3ncc(Cl)c(N[C@H]4[C@@H]5CC[C@@H](C5)[C@H]4C(N)=O)n3)cc21: > 7.00
20. CNC(=O)c1c(Cl)sc(Cl)c1Nc1nc(Nc2ccc3c(c2)CCOC(=O)N3C)ncc1Cl: 5.00 to 6.00
21. CCC(=O)OCCN1CCc2cc(Nc3ncc(Cl)c(Nc4ccccc4S(=O)(=O)N(C)C)n3)c(OC)cc2CC1: > 7.00
22. CN1C(=O)CCC(C)(C)c2cc(Nc3ncc(Cl)c(N[C@@H]4CCCC[C@H]4N(C)S(C)(=O)=O)n3)ccc21: > 7.00
23. C#CCNC(=O)c1cccc(F)c1Nc1nc(Nc2ccc3c(c2)N(C(=O)CN)CCCC3(C)C)ncc1Cl: 6.00 to 7.00
24. COCCOC(=O)c1ccccc1Nc1nc(Nc2cc3c(cc2OC)CCN(CC(C)O)CC3)ncc1Cl (stereo not drawn): > 7.00
25. CNC(=O)c1cccc(F)c1Nc1nc(Nc2ccc3c(c2)N(C(C)C)CCCC3(C)C)ncc1Cl: 6.00 to 7.00
26. CCN1C(=O)CN(C(C)=O)Cc2ccc(Nc3ncc(Cl)c(Nc4c(F)cccc4C(=O)NC)n3)cc21: 5.00 to 6.00
27. CCN1CCCOc2cc(Nc3ncc(Cl)c(Nc4ccc(N5CCOCC5)cc4OC)n3)c(F)cc21: 6.00 to 7.00
28. COc1cc(N2CCOCC2)ccc1Nc1nc(Nc2ccc3c(c2)N(CC(C)C)C(=O)CCC3(C)C)ncc1Cl: > 7.00
29. COCCOC(=O)c1ccccc1Nc1nc(Nc2cc3c(cc2OC)CCN(CCO)CC3)ncc1Cl: > 7.00
30. CNC(=O)c1ccccc1Nc1nc(Nc2ccc3c(c2)-n2ccnc2CCC3)ncc1Cl: 6.00 to 7.00
